Tested on: L1210 leukemia ip in BDF1 mice, survival T/C
Experiment: NCI In Vivo Anticancer Drug Screen. Data for tumor model L1210 Leukemia (intraperitoneal) in B6D2F1 (BDF1) mice
Details: endpoint: mean survival time; dose: 400.0 mg/kg/injection; schedule: Q01DX001 (ip); vehicle: carboxymethylcellulose (CMC); higher = longer survival
Toxic doses and inconclusive results are not listed.
MEASUREMENT_TYPE: T/C

Prompt line: T/C for CC1([N+](=O)[O-])COP(=O)(NCc2ccccc2)OC1 (stereo unspecified) ?
Response line: 97 % of control

Prompt line: T/C for CCN(c1ccccc1)c1ccc([N+](=O)[O-])cc1[N+](=O)[O-] ?
Response line: 100 % of control

Prompt line: T/C for CCCCCCCCCCCCSCCSCCCCCCCCCCCC ?
Response line: 102 % of control

Prompt line: T/C for COC(=O)NNC(=O)OC ?
Response line: 103 % of control

Prompt line: T/C for CNc1nc(N)nc(Nc2ccc(I)cc2)c1N=O ?
Response line: 100 % of control

Prompt line: T/C for CC(=O)OC1CCCCCCCCC1OC(C)=O (stereo unspecified) ?
Response line: 95 % of control

Prompt line: T/C for C/C=C/C=C/C(=O)N(C)c1ccccc1 ?
Response line: 100 % of control

Prompt line: T/C for Cc1ccc(S(=O)(=O)N2CCCC(=O)c3ccccc32)cc1 ?
Response line: 102 % of control

Prompt line: T/C for O=C(N/N=C/c1ccccc1O)C(O)(c1ccccc1)c1ccccc1 ?
Response line: 97 % of control

Prompt line: T/C for CS(=O)(=O)Oc1ccc2ccccc2c1[N+](=O)[O-] ?
Response line: 98 % of control

Prompt line: T/C for O=C(CN1CCCCC1)N1CCN(C(=O)CN2CCCCC2)CC1 ?
Response line: 103 % of control

From: PubChem BioAssay AID248
